We begin with a simple list: items and their reported Hepatotoxicity (steatosis).
Details: human;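 note: steatosis confirmed by histopathology, value is the count of indexed references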

1. CNc1nc(N(C)C)nc(N(C)C)n1    0
2. CC1CCCC(C)N1CCCC(O)(c1ccccc1)c1ccccn1 (stereo not given)    0
3. NCC[C@H](O)C(=O)N[C@@H]1C[C@H](N)[C@@H](O[C@H]2O[C@H](CN)CC[C@H]2N)[C@H](O)[C@H]1O[C@H]1O[C@H](CO)[C@@H](O)[C@H](N)[C@H]1O    0
4. CC(C)(C)c1ccc(C(O)CCCN2CCC(C(O)(c3ccccc3)c3ccccc3)CC2)cc1 (stereo not given)    0

Dear colleague, please send me the reported Hepatotoxicity (steatosis) for CCOC(=O)C(C)(C)Oc1ccc(Cl)cc1 [CLOFIBRATE] when you can. 1
